Ref: ChEMBL document CHEMBL4033715

# system: Aurora kinase B (Homo sapiens)
# Sequence (Q96GD4 whole entry): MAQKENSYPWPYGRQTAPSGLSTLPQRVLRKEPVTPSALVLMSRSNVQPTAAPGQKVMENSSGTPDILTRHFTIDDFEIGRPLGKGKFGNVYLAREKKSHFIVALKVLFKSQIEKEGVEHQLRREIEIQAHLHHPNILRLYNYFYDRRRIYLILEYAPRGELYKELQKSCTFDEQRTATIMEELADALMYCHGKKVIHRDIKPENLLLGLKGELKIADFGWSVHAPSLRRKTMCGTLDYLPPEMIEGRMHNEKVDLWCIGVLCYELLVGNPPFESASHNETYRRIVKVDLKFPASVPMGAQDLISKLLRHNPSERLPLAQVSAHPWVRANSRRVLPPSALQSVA
# method-notes: Inhibition of recombinant full length human N-terminal GST-tagged Aurora B expressed in baculovirus infected Sf9 cells at 10 uM using myelin basic protein as substrate after 60 mins by ADP-Glo luminescence assay relative to control
measured-metric: inhibition (%)

Worked set:
O=C(Nc1cccc(CNc2nc3ccc(OCCN4CCOCC4)cc3s2)c1)c1ccc(F)cc1	56
O=C(Nc1ccc(Cl)cc1)n1ccc(CNc2nc3ccc(OCCN4CCOCC4)cc3s2)n1	31
COc1ccc(C(=O)Nc2ccc(CNc3nc4ccc(OCCN5CCOCC5)cc4s3)cc2)cc1	85
O=C(Nc1cccc(CNc2nc3ccc(OCCN4CCOCC4)cc3s2)c1)c1ccc(Cl)cc1	42
O=C(Nc1ccc(CNc2nc3ccc(OCCN4CCOCC4)cc3s2)cc1)c1ccccc1	25

(I) O=C(Nc1ccc(CNc2nc3ccc(OCCN4CCOCC4)cc3s2)cc1)c1cccc(Cl)c1
(II) O=C(Nc1ccc(F)cc1)n1ccc(CNc2nc3ccc(OCCN4CCOCC4)cc3s2)n1
(III) O=C(Nc1ccc(Br)cc1)n1ccc(CNc2nc3ccc(OCCN4CCOCC4)cc3s2)n1
(IV) O=C(Nc1ccc(Cl)c(Cl)c1)n1ccc(CNc2nc3ccc(OCCN4CCOCC4)cc3s2)n1
Query: # rank by inhibition, ascending (min first) Labels, ranked as asked.
Reply: II, III, IV, I

* * *

# system: UniProt:Q96GD4
# method-notes: Inhibition of recombinant full length human N-terminal GST-tagged Aurora B expressed in baculovirus infected Sf9 cells at 1 uM using myelin basic protein as substrate after 60 mins by ADP-Glo luminescence assay relative to control
measured-metric: inhibition (%)

Consider the following illustrative entries.
S=C(Nc1ccc(Cl)cc1)Nc1ccc(CNc2nc3ccc(OCCN4CCOCC4)cc3s2)cc1	94
O=C(Nc1ccc(F)cc1)Nc1ccc(CNc2nc3ccc(OCCN4CCOCC4)cc3s2)cc1	44
O=C(Nc1ccccc1)Nc1ccc(CNc2nc3ccc(OCCN4CCOCC4)cc3s2)cc1	91

(A) O=C(Nc1ccccc1)Nc1cccc(CNc2nc3ccc(OCCN4CCOCC4)cc3s2)c1
(B) O=C(Nc1ccc(CNc2nc3ccc(OCCN4CCOCC4)cc3s2)cc1)Nc1cccc(Cl)c1
Query: Name the one with the greater inhibition value, either A or B as given. Field: selected label. Fill in the label of the entry you choose.
Reply: B

* * *

# system: Aurora kinase B (Homo sapiens)
# method-notes: Inhibition of recombinant full length human N-terminal GST-tagged Aurora B expressed in baculovirus infected Sf9 cells at 10 uM using myelin basic protein as substrate after 60 mins by ADP-Glo luminescence assay relative to control
Documented inhibition across a set of compounds

Recorded inhibition, per entry:
O=C(Nc1cccc(CNc2nc3ccc(OCCN4CCOCC4)cc3s2)c1)c1ccc([N+](=O)[O-])cc1	17%
O=S(=O)(Nc1ccc(CNc2nc3ccc(OCCN4CCOCC4)cc3s2)cc1)c1ccccc1	16%

Query: I'd like to know its inhibition. The compound in question is O=S(=O)(Nc1ccc(CNc2nc3ccc(OCCN4CCOCC4)cc3s2)cc1)c1ccc(F)cc1
Reply: 30%

Query: inhibition lookup needed for O=C(Nc1ccccc1)n1ccc(CNc2nc3ccc(OCCN4CCOCC4)cc3s2)n1 , thanks.
Reply: 12%

Query: Report inhibition for O=C(Nc1ccc(CNc2nc3ccc(OCCN4CCOCC4)cc3s2)cc1)c1ccc(Cl)cc1 please.
Reply: 59%

Query: Requested field: inhibition. Item: O=C(Nc1cccc(CNc2nc3ccc(OCCN4CCOCC4)cc3s2)c1)c1cccc(Cl)c1
Reply: 30%

Query: # lookup: inhibition of O=S(=O)(Nc1ccc(CNc2nc3ccc(OCCN4CCOCC4)cc3s2)cc1)c1ccc(Cl)cc1
Reply: 28%

Query: Tell me the measured inhibition of O=C(Nc1cccc(CNc2nc3ccc(OCCN4CCOCC4)cc3s2)c1)c1ccccc1 , please.
Reply: 24%
